Below, each entry is listed alongside its reported GI50.
- Test system: MDA-MB-231 (breast)
Quantity Kind: GI50 (µM)

>>> endpoint_value("C[C@]12O[C@H](C[C@@H](O)[C@H]1O)n1c3ccccc3c3c4c(c5c6ccccc6n2c5c31)CNC4=O")
1.84
>>> endpoint_value("C[C@@H]1O[C@@H](n2c3ccccc3c3c4c(c5c6ccccc6[nH]c5c32)C(=O)NC4=O)[C@H](O)[C@H](O)[C@H]1O")
4.4
>>> endpoint_value("C[C@]12O[C@H]([C@H](O)[C@H](O)[C@H]1O)n1c3ccccc3c3c4c(c5c6ccccc6n2c5c31)CNC4=O [formula (XVI), N^12-5′(S)-N^13-1′-(R)-L-rhamnosyl-k252c]")
0.59

* * *

Below, each entry is listed alongside its reported inhibition at 0.1 µM.
- Assay Target: SYK (Homo sapiens, UniProt P43405)
- Construct: purchased Carna Biosciences
- Protocol Summary: LabChip (Caliper) kinase assay, SYK
- Type: biochemical
- Condition Parameters: compound at 100 nM, read-out: remaining kinase activity (in %) / percentage of inhibition
Quantity Kind: inhibition at 0.1 µM (%)

>>> endpoint_value("C[C@@H]1O[C@@H](n2c3ccccc3c3c4c(c5c6ccccc6[nH]c5c32)CNC4=O)C[C@@H](O)[C@H]1O [formula (XIV), N^13-1′-β-L-digitoxosyl-k252c]")
11
>>> endpoint_value("C[C@H]1O[C@@H](n2c3ccccc3c3c4c(c5c6ccccc6[nH]c5c32)C(=O)NC4=O)C[C@@H](O)[C@@H]1O [formula (VI), N^13-1′-β-D-olivosylarcyriaflavin]")
31
>>> endpoint_value("C[C@@H]1O[C@@H](n2c3ccccc3c3c4c(c5c6ccccc6[nH]c5c32)CNC4=O)C[C@H](O)[C@H]1O [formula (XIII), N^13-1′-β-L-olivosyl-k252c]")
30
>>> endpoint_value("C[C@@H]1O[C@@H](n2c3ccccc3c3c4c(c5c6ccccc6[nH]c5c32)C(=O)NC4=O)C[C@H](O)[C@H]1O [formula (IV), N^13-1′-β-L-olivosylarcyriaflavin]")
35
>>> endpoint_value("C[C@@H]1O[C@@H](n2c3ccccc3c3c4c(c5c6ccccc6[nH]c5c32)C(=O)NC4=O)C[C@@H](O)[C@H]1O [formula (V), N^13-1′-β-L-digitoxosylarcyriaflavin]")
24

* * *

Below, each entry is listed alongside its reported inhibition at 0.1 µM.
- Assay Target: Dyrk1a (Homo sapiens, UniProt Q13627)
- Construct: purchased Upstate
- Protocol Summary: LabChip (Caliper) kinase assay, Dyrk1a
- Type: biochemical
- Condition Parameters: compound at 100 nM, read-out: remaining kinase activity (in %) / percentage of inhibition
Quantity Kind: inhibition at 0.1 µM

>>> endpoint_value("C[C@@H]1O[C@@H](n2c3ccccc3c3c4c(c5c6ccccc6[nH]c5c32)C(=O)NC4=O)C[C@H](O)[C@H]1O [formula (IV), N^13-1′-β-L-olivosylarcyriaflavin]")
"75%"
>>> endpoint_value("C[C@H]1O[C@@H](n2c3ccccc3c3c4c(c5c6ccccc6[nH]c5c32)C(=O)NC4=O)C[C@@H](O)[C@@H]1O [formula (VI), N^13-1′-β-D-olivosylarcyriaflavin]")
"94%"
>>> endpoint_value("C[C@@H]1O[C@@H](n2c3ccccc3c3c4c(c5c6ccccc6[nH]c5c32)C(=O)NC4=O)C[C@@H](O)[C@H]1O [formula (V), N^13-1′-β-L-digitoxosylarcyriaflavin]")
"87%"

* * *

Below, each entry is listed alongside its reported inhibition at 0.01 µM.
- Assay Target: Erk2 (Homo sapiens)
- Construct: purchased Carna Biosciences
- Sequence (P28482 whole entry): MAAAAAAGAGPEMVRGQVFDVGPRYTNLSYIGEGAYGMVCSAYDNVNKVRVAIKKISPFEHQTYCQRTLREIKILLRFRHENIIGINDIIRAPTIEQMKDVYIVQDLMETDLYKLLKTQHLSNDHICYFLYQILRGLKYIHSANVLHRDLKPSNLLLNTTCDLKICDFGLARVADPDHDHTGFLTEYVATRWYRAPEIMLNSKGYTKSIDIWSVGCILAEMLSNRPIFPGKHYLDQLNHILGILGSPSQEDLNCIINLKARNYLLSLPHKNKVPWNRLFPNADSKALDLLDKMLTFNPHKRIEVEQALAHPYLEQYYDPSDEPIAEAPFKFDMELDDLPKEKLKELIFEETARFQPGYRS
- Protocol Summary: LabChip (Caliper) kinase assay, Erk2
- Format: biochemical
- Condition Parameters: compound at 10 nM, read-out: remaining kinase activity (in %) / percentage of inhibition
Quantity Kind: inhibition at 0.01 µM (%)

>>> endpoint_value("C[C@H]1O[C@@H](n2c3ccccc3c3c4c(c5c6ccccc6[nH]c5c32)C(=O)NC4=O)C[C@@H](O)[C@@H]1O")
-1
>>> endpoint_value("C[C@@H]1O[C@@H](n2c3ccccc3c3c4c(c5c6ccccc6[nH]c5c32)CNC4=O)C[C@@H](O)[C@H]1O [formula (XIV), N^13-1′-β-L-digitoxosyl-k252c]")
-4
>>> endpoint_value("C[C@@H]1O[C@@H](n2c3ccccc3c3c4c(c5c6ccccc6[nH]c5c32)C(=O)NC4=O)C[C@H](O)[C@H]1O")
-2

* * *

Below, each entry is listed alongside its reported inhibition at 0.01 µM.
- Assay Target: FGFR1 (Homo sapiens, UniProt P11362)
- Construct: purchased Upstate
- Sequence (P11362 22-822, species assumed): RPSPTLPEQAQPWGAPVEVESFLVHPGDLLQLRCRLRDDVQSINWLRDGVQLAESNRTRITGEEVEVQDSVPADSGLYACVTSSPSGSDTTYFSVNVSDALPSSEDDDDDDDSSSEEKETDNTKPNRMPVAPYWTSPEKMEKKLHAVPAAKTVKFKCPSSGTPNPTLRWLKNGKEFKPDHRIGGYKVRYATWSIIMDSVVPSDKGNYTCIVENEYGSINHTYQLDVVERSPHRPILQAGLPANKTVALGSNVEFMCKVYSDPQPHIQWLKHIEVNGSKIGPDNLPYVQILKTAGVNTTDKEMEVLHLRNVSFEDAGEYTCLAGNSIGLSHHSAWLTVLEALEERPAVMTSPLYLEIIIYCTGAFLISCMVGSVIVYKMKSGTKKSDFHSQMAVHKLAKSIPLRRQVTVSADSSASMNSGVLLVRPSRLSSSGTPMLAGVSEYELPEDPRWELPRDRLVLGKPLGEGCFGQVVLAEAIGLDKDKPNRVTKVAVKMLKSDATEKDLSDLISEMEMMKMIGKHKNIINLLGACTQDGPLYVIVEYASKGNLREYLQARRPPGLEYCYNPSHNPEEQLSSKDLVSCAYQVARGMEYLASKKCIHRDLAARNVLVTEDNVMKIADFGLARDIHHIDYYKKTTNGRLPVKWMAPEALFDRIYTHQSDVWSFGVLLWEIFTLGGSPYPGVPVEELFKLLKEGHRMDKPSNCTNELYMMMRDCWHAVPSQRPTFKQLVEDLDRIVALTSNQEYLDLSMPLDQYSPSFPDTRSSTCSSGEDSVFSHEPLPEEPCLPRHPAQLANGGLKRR
- Protocol Summary: LabChip (Caliper) kinase assay, FGFR1
- Type: biochemical
- Condition Parameters: compound at 10 nM, read-out: remaining kinase activity (in %) / percentage of inhibition
Quantity Kind: inhibition at 0.01 µM (%)

>>> endpoint_value("C[C@@H]1O[C@@H](n2c3ccccc3c3c4c(c5c6ccccc6[nH]c5c32)CNC4=O)[C@H](O)[C@H](O)[C@H]1O [formula (XII), N^13-1′-β-L-rhamnosyl-k252c]")
1
>>> endpoint_value("C[C@@H]1O[C@@H](n2c3ccccc3c3c4c(c5c6ccccc6[nH]c5c32)CNC4=O)C[C@@H](O)[C@H]1O [formula (XIV), N^13-1′-β-L-digitoxosyl-k252c]")
1
>>> endpoint_value("C[C@H]1O[C@@H](n2c3ccccc3c3c4c(c5c6ccccc6[nH]c5c32)C(=O)NC4=O)C[C@@H](O)[C@@H]1O [formula (VI), N^13-1′-β-D-olivosylarcyriaflavin]")
1
>>> endpoint_value("C[C@@H]1O[C@@H](n2c3ccccc3c3c4c(c5c6ccccc6[nH]c5c32)C(=O)NC4=O)[C@H](O)[C@H](O)[C@H]1O [formula (III), N^13-1′-β-L-rhamnosylarcyriaflavin]")
3
>>> endpoint_value("C[C@@H]1O[C@@H](n2c3ccccc3c3c4c(c5c6ccccc6[nH]c5c32)C(=O)NC4=O)C[C@H](O)[C@H]1O [formula (IV), N^13-1′-β-L-olivosylarcyriaflavin]")
3

* * *

- Assay Target: AurA (Homo sapiens, UniProt O14965)
- Construct: purchased Carna Biosciences
- Sequence (O14965 whole entry): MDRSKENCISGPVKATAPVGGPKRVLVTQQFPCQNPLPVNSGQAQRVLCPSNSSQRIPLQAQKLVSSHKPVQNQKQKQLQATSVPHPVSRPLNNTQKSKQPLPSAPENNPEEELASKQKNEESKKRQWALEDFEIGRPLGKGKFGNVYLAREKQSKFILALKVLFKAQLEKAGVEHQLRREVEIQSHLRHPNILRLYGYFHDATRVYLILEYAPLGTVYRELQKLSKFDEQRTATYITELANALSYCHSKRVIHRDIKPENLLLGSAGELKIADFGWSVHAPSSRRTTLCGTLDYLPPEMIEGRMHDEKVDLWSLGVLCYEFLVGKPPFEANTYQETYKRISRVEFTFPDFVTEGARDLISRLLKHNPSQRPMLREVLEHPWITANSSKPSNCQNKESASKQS
- Protocol Summary: LabChip (Caliper) kinase assay, AurA
- Format: biochemical
- Condition Parameters: compound at 100 nM, read-out: remaining kinase activity (in %) / percentage of inhibition
Quantity Kind: inhibition at 0.1 µM (%)

>>> endpoint_value("C[C@H]1O[C@@H](n2c3ccccc3c3c4c(c5c6ccccc6[nH]c5c32)CNC4=O)C[C@@H](O)[C@@H]1O [formula (XV), N^13-1′-β-D-olivosyl-k252c]")
20
>>> endpoint_value("C[C@@H]1O[C@@H](n2c3ccccc3c3c4c(c5c6ccccc6[nH]c5c32)C(=O)NC4=O)C[C@@H](O)[C@H]1O [formula (V), N^13-1′-β-L-digitoxosylarcyriaflavin]")
22
>>> endpoint_value("C[C@@H]1O[C@@H](n2c3ccccc3c3c4c(c5c6ccccc6[nH]c5c32)C(=O)NC4=O)C[C@H](O)[C@H]1O [formula (IV), N^13-1′-β-L-olivosylarcyriaflavin]")
19

* * *

- Assay Target: HGK (Homo sapiens)
- Construct: purchased Invitrogen
- Sequence (O95819 whole entry, species assumed): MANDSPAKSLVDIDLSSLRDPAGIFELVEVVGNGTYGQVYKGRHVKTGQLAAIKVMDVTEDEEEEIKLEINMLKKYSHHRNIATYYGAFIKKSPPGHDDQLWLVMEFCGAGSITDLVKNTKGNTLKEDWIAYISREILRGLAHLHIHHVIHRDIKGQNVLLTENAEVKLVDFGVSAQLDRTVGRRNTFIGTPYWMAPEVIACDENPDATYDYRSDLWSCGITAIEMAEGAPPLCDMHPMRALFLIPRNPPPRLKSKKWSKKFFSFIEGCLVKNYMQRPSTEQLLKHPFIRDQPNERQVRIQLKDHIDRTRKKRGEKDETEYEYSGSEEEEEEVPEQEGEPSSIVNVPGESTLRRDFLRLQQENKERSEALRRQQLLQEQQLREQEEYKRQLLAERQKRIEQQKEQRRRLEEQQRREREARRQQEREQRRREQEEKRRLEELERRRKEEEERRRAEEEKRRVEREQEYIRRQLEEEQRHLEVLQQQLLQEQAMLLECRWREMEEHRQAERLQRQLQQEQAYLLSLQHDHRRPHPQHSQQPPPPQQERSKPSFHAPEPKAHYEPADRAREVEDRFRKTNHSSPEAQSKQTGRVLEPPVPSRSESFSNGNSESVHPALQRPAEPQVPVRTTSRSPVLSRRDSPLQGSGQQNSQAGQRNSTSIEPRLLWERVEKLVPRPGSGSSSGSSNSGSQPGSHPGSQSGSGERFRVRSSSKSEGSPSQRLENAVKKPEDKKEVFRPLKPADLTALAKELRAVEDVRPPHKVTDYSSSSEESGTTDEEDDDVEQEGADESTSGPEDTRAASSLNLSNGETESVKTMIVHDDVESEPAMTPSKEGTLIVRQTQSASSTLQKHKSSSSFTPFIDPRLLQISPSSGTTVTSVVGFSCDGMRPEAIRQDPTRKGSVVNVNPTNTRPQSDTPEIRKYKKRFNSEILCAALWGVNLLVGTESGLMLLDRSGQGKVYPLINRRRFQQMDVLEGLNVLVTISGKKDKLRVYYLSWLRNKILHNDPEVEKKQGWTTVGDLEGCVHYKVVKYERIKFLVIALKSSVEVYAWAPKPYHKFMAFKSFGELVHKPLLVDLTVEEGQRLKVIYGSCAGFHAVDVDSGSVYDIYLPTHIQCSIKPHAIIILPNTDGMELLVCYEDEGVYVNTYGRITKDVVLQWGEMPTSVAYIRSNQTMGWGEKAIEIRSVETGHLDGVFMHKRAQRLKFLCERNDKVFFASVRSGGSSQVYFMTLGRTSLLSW
- Protocol Summary: LabChip (Caliper) kinase assay, HGK
- Type: biochemical
- Condition Parameters: compound at 10 nM, read-out: remaining kinase activity (in %) / percentage of inhibition
Below, each entry is listed alongside its reported inhibition at 0.01 µM.
Quantity Kind: inhibition at 0.01 µM

>>> endpoint_value("C[C@@H]1O[C@@H](n2c3ccccc3c3c4c(c5c6ccccc6[nH]c5c32)CNC4=O)C[C@H](O)[C@H]1O [formula (XIII), N^13-1′-β-L-olivosyl-k252c]")
"16%"
>>> endpoint_value("C[C@H]1O[C@@H](n2c3ccccc3c3c4c(c5c6ccccc6[nH]c5c32)C(=O)NC4=O)C[C@@H](O)[C@@H]1O [formula (VI), N^13-1′-β-D-olivosylarcyriaflavin]")
"35%"
>>> endpoint_value("C[C@H]1O[C@@H](n2c3ccccc3c3c4c(c5c6ccccc6[nH]c5c32)CNC4=O)C[C@@H](O)[C@@H]1O [formula (XV), N^13-1′-β-D-olivosyl-k252c]")
"36%"
>>> endpoint_value("C[C@@H]1O[C@@H](n2c3ccccc3c3c4c(c5c6ccccc6[nH]c5c32)C(=O)NC4=O)[C@H](O)[C@H](O)[C@H]1O [formula (III), N^13-1′-β-L-rhamnosylarcyriaflavin]")
"30%"
>>> endpoint_value("C[C@@H]1O[C@@H](n2c3ccccc3c3c4c(c5c6ccccc6[nH]c5c32)C(=O)NC4=O)C[C@H](O)[C@H]1O [formula (IV), N^13-1′-β-L-olivosylarcyriaflavin]")
"9%"
>>> endpoint_value("C[C@@H]1O[C@@H](n2c3ccccc3c3c4c(c5c6ccccc6[nH]c5c32)C(=O)NC4=O)C[C@@H](O)[C@H]1O [formula (V), N^13-1′-β-L-digitoxosylarcyriaflavin]")
"54%"
>>> endpoint_value("C[C@@H]1O[C@@H](n2c3ccccc3c3c4c(c5c6ccccc6[nH]c5c32)CNC4=O)[C@H](O)[C@H](O)[C@H]1O [formula (XII), N^13-1′-β-L-rhamnosyl-k252c]")
"44%"
>>> endpoint_value("C[C@@H]1O[C@@H](n2c3ccccc3c3c4c(c5c6ccccc6[nH]c5c32)CNC4=O)C[C@@H](O)[C@H]1O [formula (XIV), N^13-1′-β-L-digitoxosyl-k252c]")
"20%"
